Attribution: ChEMBL document CHEMBL4739716

Target system: UniProt:P0C0W8
Sequence (P0C0W8 whole entry): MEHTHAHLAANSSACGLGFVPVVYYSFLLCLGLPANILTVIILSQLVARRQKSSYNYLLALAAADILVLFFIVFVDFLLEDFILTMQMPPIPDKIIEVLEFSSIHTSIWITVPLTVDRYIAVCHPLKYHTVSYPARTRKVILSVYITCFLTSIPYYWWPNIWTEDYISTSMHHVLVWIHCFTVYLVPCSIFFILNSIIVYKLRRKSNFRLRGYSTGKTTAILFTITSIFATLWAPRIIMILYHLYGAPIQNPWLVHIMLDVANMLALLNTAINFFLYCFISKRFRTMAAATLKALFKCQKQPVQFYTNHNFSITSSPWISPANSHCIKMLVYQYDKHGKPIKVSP
Experiment summary: Agonist activity at rat GPR139 expressed in CHO-K1 cells assessed as increase in calcium flux by calcium 5 dye based FLIPR assay relative to JNJ63533054
Assay type: cell-based
Reported conditions: filed as agonist
Documented Emax across a set of compounds

Field: example entries. Status: answers known.
{"columns": ["Molecule smiles", "Value reported"],
 "data": [
  ["C[C@H](NC(=O)Cn1nc2ccc(Cl)nn2c1=O)c1ccc(Cl)c(F)c1", "> 80%"],
  ["Cc1ccc([C@H](C)NC(=O)Cn2nc3ccccn3c2=O)cc1Cl", "> 80%"]
]}

[ask] Determine its reported Emax: COc1nc2nn(CC(=O)N[C@@H](C)c3ccc(Cl)c(F)c3)c(=O)n2cc1C
[reply] > 80%

[ask] State, in one line, measured Emax of COc1cnn2c(=O)n(CC(=O)N[C@@H](C)c3ccc(Cl)c(F)c3)nc2c1
[reply] > 80%

====

Here the recorded pEC50 is given for each entry.
Target system: UniProt Q6DWJ6
Sequence (Q6DWJ6 whole entry): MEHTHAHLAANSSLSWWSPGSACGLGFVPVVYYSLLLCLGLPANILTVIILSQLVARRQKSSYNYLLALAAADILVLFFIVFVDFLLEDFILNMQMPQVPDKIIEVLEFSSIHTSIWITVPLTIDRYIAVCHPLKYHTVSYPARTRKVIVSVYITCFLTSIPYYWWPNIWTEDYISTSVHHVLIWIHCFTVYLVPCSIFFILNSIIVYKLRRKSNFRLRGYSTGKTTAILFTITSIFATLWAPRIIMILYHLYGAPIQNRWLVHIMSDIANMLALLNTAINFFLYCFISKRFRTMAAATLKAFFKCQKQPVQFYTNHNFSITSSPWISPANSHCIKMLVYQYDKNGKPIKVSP
Experiment summary: Agonist activity at human GPR139 expressed in CHO-K1 cells assessed as induction of beta-arrestin 2 recruitment incubated for 90 mins by PathHunter assay
Type: cell-based
Reported conditions: cho-k1
Note on pEC50: it is the negative log10 of concentration, concentration in mol/L.

Solved entries (count: 3):
{"columns": ["Compound", "pEC50"],
 "data": [
  ["COc1cccc2nn(CC(=O)N[C@@H](C)c3ccc(OC(F)(F)F)cc3)c(=O)n12", 9.00],
  ["C[C@H](NC(=O)Cn1nc2ccccn2c1=O)c1ccc(Cl)c(Cl)c1", 9.00],
  ["Cc1cc(Cl)ccc1[C@H](C)NC(=O)Cn1nc2ccccn2c1=O", 9.00]
]}

[ask] Find the measured pEC50 of Cc1ccn2c(=O)n(CC(=O)N[C@@H](C)c3ccc(Cl)c(F)c3)nc2c1 and report it.
[reply] 9.00

[ask] Give the measured pEC50 for CNc1ccnn2c(=O)n(CC(=O)N[C@@H](C)c3ccc(Cl)c(F)c3)nc12
[reply] 9.00

[ask] Supply measured pEC50 of COc1cnc2nn(CC(=O)N[C@@H](C)c3ccc(OC(F)(F)F)cc3)c(=O)n2c1 in your reply.
[reply] 9.00

[ask] Determine its reported pEC50: C[C@H](NC(=O)Cn1nc2cc(C#N)ccn2c1=O)c1ccc(Cl)c(F)c1
[reply] 9.00

[ask] Quick one: give measured pEC50 for Cc1ccc([C@H](C)NC(=O)Cn2nc3ccc(F)cn3c2=O)cc1
[reply] 8.00

[ask] Please report pEC50 for the following compound: Cc1cc([C@H](C)NC(=O)Cn2nc3ccccn3c2=O)ccc1Cl
[reply] 9.00

[ask] Return value of pEC50 for input Cc1ccc([C@H](C)NC(=O)Cn2nc3cccc(F)n3c2=O)cc1 , no commentary.
[reply] 8.00

[ask] Report pEC50 for COc1ccn2c(=O)n(CC(=O)N[C@@H](C)c3ccc(Cl)c(F)c3)nc2c1
[reply] 9.00

[ask] Indicate its recorded pEC50; the compound in question is Cc1ccc([C@H](C)NC(=O)Cn2nc3ncccn3c2=O)cc1F
[reply] 8.00

====

Target system: Probable G-protein coupled receptor 139 (Homo sapiens)
Experiment summary: Agonist activity at human GPR139 expressed in CHO-K1 cells assessed as increase in calcium flux by calcium 5 dye based FLIPR assay relative to JNJ63533054
Type: functional, cell-based
Reported conditions: filed as agonist
Entries and their Emax values follow.

Solved entries (count: 3):
{"columns": ["Compound", "Emax"],
 "data": [
  ["Cc1ccc([C@H](C)NC(=O)Cn2nc3cccnn3c2=O)cc1Cl", "> 80%"],
  ["Cc1ccc([C@H](C)NC(=O)Cn2nc3ccc(F)cn3c2=O)cc1", "> 80%"],
  ["C[C@H](NC(=O)Cn1nc2ncc(F)cn2c1=O)c1ccc(Cl)cc1", "> 80%"]
]}

// moving on: another record for Emax
[ask] For the compound Cc1ccc([C@H](C)NC(=O)Cn2nc3c(C4CCNC4)cccn3c2=O)cc1 (stereo partly specified) , give its measured Emax value.
[reply] 50%

====

Target system: Probable G-protein coupled receptor 139 (Homo sapiens, UniProt Q6DWJ6)
Experiment summary: Agonist activity at human GPR139 expressed in CHO-K1 cells assessed as increase in calcium flux by calcium 5 dye based FLIPR assay
Type: functional, cell-based
pEC50: −log10 of the molar value.
# key: entry, value: pEC50

These solved cases illustrate the format of a correct answer.
{"columns": ["Molecule", "Value reported"],
 "data": [
  ["C[C@H](NC(=O)Cn1nc2ccc(F)cn2c1=O)c1ccc(OC(F)(F)F)cc1", "> 9.00"],
  ["COc1ccnn2c(=O)n(CC(=O)N[C@@H](C)c3ccc(Cl)c(F)c3)nc12", "> 9.00"],
  ["C[C@H](NC(=O)Cn1nc2cccc(N3CC(F)(F)C3)n2c1=O)c1ccc(Cl)c(F)c1", "> 9.00"],
  ["Cc1ccc([C@@H](C)NC(=O)Cn2nc3ccccn3c2=O)cc1", "≤ 7.00"],
  ["COc1cccc2nn(CC(=O)N[C@@H](C)c3ccc(C)cc3)c(=O)n12", "> 9.00"]
]}

[ask] Specify reported pEC50 for the molecule shown: Cc1ccc2nn(CC(=O)N[C@@H](C)c3ccc(OC(F)(F)F)cc3)c(=O)n2c1
[reply] > 9.00

[ask] Please indicate pEC50 recorded for Cc1ccc([C@H](C)NC(=O)Cn2nc3c(C4CCNC4)cccn3c2=O)cc1 (stereo partly specified)
[reply] ≤ 7.00

[ask] Please give measured pEC50 of the following entry: C[C@H](NC(=O)Cn1nc2ccccn2c1=O)c1ccc(Cl)cc1
[reply] > 9.00

[ask] Consider the molecule COc1cnn2c(=O)n(CC(=O)N[C@@H](C)c3ccc(Cl)c(F)c3)nc2c1 . State its measured pEC50.
[reply] > 9.00

[ask] Given the molecule C[C@H](NC(=O)Cn1nc2c(OC3CN(C)C3)nccn2c1=O)c1ccc(Cl)c(F)c1 , write its reported pEC50.
[reply] ≤ 7.00

[ask] # return recorded pEC50 for entry C[C@H](NC(=O)Cn1nc2cc(I)ccn2c1=O)c1ccc(Cl)c(F)c1
[reply] > 9.00

====

Target system: Probable G-protein coupled receptor 139 (Homo sapiens)
Experiment summary: Agonist activity at human GPR139 expressed in CHO-K1 cells assessed as increase in calcium flux by calcium 5 dye based FLIPR assay
Type: functional, cell-based
pEC50: −log10 of the molar value.
Experimental readout: pEC50

{"columns": ["Compound", "pEC50"],
 "data": [
  ["C[C@H](NC(=O)Cn1nc2ccccn2c1=O)c1cncc(F)c1", "≤ 7.00"]
]}

[ask] State, for Probable G-protein coupled receptor 139 (Homo sapiens), measured pEC50 of the compound listed here: Cc1ccc([C@H](C)NC(=O)Cn2nc3c(C)ccnn3c2=O)cc1F
[reply] > 9.00

[ask] Under Probable G-protein coupled receptor 139 (Homo sapiens): report pEC50 of COc1ccn2c(=O)n(CC(=O)N[C@@H](C)c3ccc(Cl)c(F)c3)nc2n1 .
[reply] > 9.00

[ask] // fetch pEC50 for C[C@H](NC(=O)Cn1nc2ncc(Cl)cn2c1=O)c1ccc(Cl)c(F)c1 ; system: Probable G-protein coupled receptor 139 (Homo sapiens)
[reply] > 9.00

[ask] Name the recorded pEC50 of C[C@H](NC(=O)Cn1nc2cc(C3CC3)cnn2c1=O)c1ccc(Cl)c(F)c1 , assay system Probable G-protein coupled receptor 139 (Homo sapiens).
[reply] > 9.00

[ask] Provide Probable G-protein coupled receptor 139 (Homo sapiens) pEC50 reading for C[C@H](NC(=O)Cn1nc2cccc(N3CC(O)C3)n2c1=O)c1ccc(OC(F)(F)F)cc1 .
[reply] > 9.00

[ask] Find the measured pEC50 of C[C@H](NC(=O)Cn1nc2ccccn2c1=O)c1cnc(C(F)(F)F)nc1 with Probable G-protein coupled receptor 139 (Homo sapiens) as test system.
[reply] ≤ 7.00

[ask] Under Probable G-protein coupled receptor 139 (Homo sapiens): report pEC50 of C[C@H](NC(=O)Cn1nc2c(N3CCOCC3)cccn2c1=O)c1ccc(Cl)c(F)c1 .
[reply] > 9.00
